experimental.system: Toxoplasma gondii prolyl-tRNA synthetase (TgPRS) (Toxoplasma gondii)
Construct: gene TGRH88_057780
Sequence (A0A7J6JUK2 215-711): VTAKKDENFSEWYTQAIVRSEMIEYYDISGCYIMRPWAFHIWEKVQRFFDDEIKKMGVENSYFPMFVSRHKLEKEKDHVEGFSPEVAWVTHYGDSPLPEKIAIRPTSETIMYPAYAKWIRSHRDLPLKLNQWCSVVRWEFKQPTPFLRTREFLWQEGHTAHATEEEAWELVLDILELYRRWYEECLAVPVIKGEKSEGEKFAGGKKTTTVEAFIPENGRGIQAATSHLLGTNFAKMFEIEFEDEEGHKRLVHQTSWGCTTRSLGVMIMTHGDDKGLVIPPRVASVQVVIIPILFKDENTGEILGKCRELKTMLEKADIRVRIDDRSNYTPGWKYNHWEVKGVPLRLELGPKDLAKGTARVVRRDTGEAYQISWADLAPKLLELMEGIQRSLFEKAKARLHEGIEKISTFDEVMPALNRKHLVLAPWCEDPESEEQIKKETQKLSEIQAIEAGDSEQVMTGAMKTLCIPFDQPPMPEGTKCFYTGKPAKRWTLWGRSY
assay.name: co-crystal structures at […] Å (with L-pro, 7EVV; with HFG, 7EVU); TSA; malachite green aminoacylation assay (IC50)
Type: biochemical
test.readout: pIC50
pIC50 field: float, defined as -log10 of concentration (mol/L).

get_value(item= Cc1cc(N2CC[C@@](C#N)(C3CC3)C2=O)cc(NC(=O)Cc2ccccc2)n1 , readout=pIC50) returns 7.32

###

experimental.system: HsPRS (Homo sapiens, UniProt P07814)
Construct: gene EPRS1
Sequence (P07814 whole entry): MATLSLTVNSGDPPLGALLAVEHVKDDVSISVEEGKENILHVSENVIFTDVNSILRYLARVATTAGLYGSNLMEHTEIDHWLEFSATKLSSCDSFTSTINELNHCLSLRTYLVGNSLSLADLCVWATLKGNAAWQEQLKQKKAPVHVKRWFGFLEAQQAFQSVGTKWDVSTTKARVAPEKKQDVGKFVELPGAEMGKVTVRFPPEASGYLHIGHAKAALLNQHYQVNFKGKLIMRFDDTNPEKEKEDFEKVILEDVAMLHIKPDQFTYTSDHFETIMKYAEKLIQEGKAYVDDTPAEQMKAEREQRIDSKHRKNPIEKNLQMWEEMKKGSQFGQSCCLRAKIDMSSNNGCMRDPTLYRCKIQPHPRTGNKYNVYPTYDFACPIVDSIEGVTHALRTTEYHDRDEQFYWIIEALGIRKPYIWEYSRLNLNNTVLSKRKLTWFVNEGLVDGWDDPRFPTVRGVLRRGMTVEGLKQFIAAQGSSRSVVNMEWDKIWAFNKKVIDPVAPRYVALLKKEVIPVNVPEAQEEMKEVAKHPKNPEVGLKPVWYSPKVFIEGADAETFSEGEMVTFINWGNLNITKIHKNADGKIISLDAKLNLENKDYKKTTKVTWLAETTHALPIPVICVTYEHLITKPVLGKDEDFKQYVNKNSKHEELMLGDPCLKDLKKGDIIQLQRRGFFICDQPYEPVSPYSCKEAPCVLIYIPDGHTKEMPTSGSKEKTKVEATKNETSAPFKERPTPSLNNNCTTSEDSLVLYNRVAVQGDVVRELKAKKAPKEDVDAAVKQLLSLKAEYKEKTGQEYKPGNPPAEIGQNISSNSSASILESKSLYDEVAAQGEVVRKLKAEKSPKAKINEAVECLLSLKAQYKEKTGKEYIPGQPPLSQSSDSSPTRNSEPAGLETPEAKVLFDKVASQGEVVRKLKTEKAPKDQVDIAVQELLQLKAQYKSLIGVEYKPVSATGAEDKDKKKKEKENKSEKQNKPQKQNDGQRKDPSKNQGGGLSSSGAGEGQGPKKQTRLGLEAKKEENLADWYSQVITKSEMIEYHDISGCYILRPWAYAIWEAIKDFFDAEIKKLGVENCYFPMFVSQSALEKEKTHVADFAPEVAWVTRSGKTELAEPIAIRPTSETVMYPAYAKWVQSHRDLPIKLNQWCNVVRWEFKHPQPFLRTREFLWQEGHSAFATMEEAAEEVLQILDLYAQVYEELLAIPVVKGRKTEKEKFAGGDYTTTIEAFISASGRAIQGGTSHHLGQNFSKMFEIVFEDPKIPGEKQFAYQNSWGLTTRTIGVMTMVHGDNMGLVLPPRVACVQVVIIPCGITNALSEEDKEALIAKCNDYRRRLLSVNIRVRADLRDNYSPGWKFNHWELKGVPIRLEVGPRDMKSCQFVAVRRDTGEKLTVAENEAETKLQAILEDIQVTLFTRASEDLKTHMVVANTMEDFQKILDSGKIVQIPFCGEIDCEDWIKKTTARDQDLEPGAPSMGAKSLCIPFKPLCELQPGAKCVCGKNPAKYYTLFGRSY
assay.name: malachite green aminoacylation assay, recombinant enzyme; TSA
Format: biochemical
condition.label: read-out: IC50
test.readout: IC50 (nM)
Value expressed in nM; do not type the unit.

Readout IC50 for O=C(C[C@H]1NCCC[C@@H]1O)Cn1cnc2cc(Br)c(Cl)cc2c1=O (racemic) , test system HsPRS (Homo sapiens, UniProt P07814), was 10.7

###

experimental.system: Toxoplasma gondii prolyl-tRNA synthetase (TgPRS) (Toxoplasma gondii)
Construct: gene TGRH88_057780
assay.name: co-crystal structure with L95 at […] Å; TSA; malachite green aminoacylation assay (IC50)
Type: biochemical
test.readout: pIC50
When answering, recall that pIC50 equals minus log10 of the concentration in mol/L, and write that number alone.

Measured pIC50, O=C(C[C@H]1NCCC[C@@H]1O)Cn1cnc2cc(Br)c(Cl)cc2c1=O (racemic) : 8.27
